assay_explanation: Restrictive medium S. cerevisiae growth inhibition, OD615, pilot screen of yeast lifespan reduction project, restrictive growth control (AID 706);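 further: modified DeaD lifespan yeast strain shifted to restrictive glucose medium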
condition_description: OD615, 48 h, at 10 µM, hits give high values
Give growth inhibition for every item shown.
Kindly answer with a numeric value in %, unit omitted.

For the molecule "Cn1c(SCC(=O)Nc2ccc(F)cc2F)nnc1-c1cccnc1" , what growth inhibition is on record?
-8.12

I'd like to know its growth inhibition. The molecule in question is CCC(C)C1C(C#N)=C(N)Oc2n[nH]c(-c3ccccc3)c21 (stereo not given)
-3.89

State the recorded growth inhibition for this entry: "COC(=O)CNC(=O)Cn1cnc2sc(C)c(S(=O)(=O)N3CCC(C)CC3)c2c1=O"
12.7

Request the reported growth inhibition associated with "CC(=O)c1c(C)oc(C)c1CSCc1ccc(C(=O)O)o1"
0.22

Please report the recorded growth inhibition for "Cc1csc(NC(=O)NC2(C(F)(F)F)Oc3ccccc3O2)n1" .
0.47

Endpoint output: growth inhibition of CCN(CC)S(=O)(=O)c1ccc(C2CNC(=O)C2)cc1 (stereo not given) . Value?
-3.95

Consider the molecule "C=Cn1ccnc1P(=S)(c1ccc2c(c1)c1ccccc1n2CC)c1nccn1C=C" and give its measured growth inhibition.
-21.9

Could you share which growth inhibition value was measured for CN(CC1CCCO1)S(=O)(=O)c1ccc(C(=O)Nc2nc3cc4c(cc3s2)OCO4)cc1 (stereo not given) ?
-15.3

# input molecule: "O=C(Nc1ccc(F)cc1)c1cc(S(=O)(=O)N2CCCCC2)cs1" ; wanted: its growth inhibition
5.66

Request the reported growth inhibition associated with CCCOc1ccc(C2c3c(oc4cc(C)c(C)cc4c3=O)C(=O)N2CCCN(C)C)cc1 (stereo not given)
-1.01

* * *

assay_explanation: RAM signaling pathway blockade in yeast – S. cerevisiae, Pdr1DBD-CYC8 efflux-inhibited sensitized strain, primary screen (AID 1298);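 further: 0% = DMSO untreated cells without growth and 100% = 10 µM 1-NA-PP1 full growth; higher means more yeast growth rescued from 5-FOA killing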
condition_description: S. cerevisiae cbk1-as DSE1-URA3 strain, 5-FOA growth OD615, 2 d; at 50 µM; hits give high values
Exercise: state measured RAM network inhibition for each of the compounds provided.
Hi! Could you send only the number? It should be in %, unit omitted.

Quick check: RAM network inhibition of "O=C(Nc1cccnc1)c1cc(-c2ccc(Br)cc2)on1" ?
6.96

State the recorded RAM network inhibition for this entry: "COc1ccc(C(=O)c2c[nH]c3ccccc23)cc1"
-1.45

Entry under review: O=C(c1ccccc1)C(Sc1ncn[nH]1)c1ccccc1 (stereo unspecified) . Reported RAM network inhibition?
2.92

Looking for the measured RAM network inhibition of Cc1cccc(-n2c(Cc3cc(=O)[nH]c(=O)[nH]3)nnc2SCC(=O)NCC2CCCO2)c1 (stereo unspecified) , can you help?
-1.56

What value of measured RAM network inhibition is listed for "CCC(=O)N1CCc2cc(Br)cc(S(=O)(=O)N3CCN(c4ccccn4)CC3)c21" ?
9.66

If you can, please state the reported RAM network inhibition value of "CCN1C(=O)CS/C1=N\c1nccs1" .
-1.23

* * *

assay_explanation: growth suppression of beta-catenin knockout HCT116, pilot screen, human colon tumor cells (AID 823);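 further: 0% = wells killed by 20 µM Hyamine and 100% = untreated DMSO cell wells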
condition_description: CellTiter-Glo, 60 h, at 10 µM
Results filed as inconclusive are left out. Calls of active or inactive are those of the source.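 The calls were made as follows: active = cell viability at or below a set limit in both duplicate runs, the limit being the all-compound median minus 4 SD (cut at about 23% in these data, passing the limit was not always enough); inconclusive = no clear call, values can overlap the other calls; inactive = the rest.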
Please answer using one outcome listed in TRUE = active, FALSE = inactive

Tell me the recorded outcome of this test for "O=C(c1cc(F)c(F)cc1Cl)N1CCCCC1" .
FALSE

Outcome? CCOC(=O)N1CCN(C2CC(=O)N(c3ccccc3)C2=O)CC1 (stereo unspecified)
FALSE

Could you please tell me the result logged for "CCOC(=O)CCc1c(C)c2c(C)nn(-c3ccccc3)c2[nH]c1=O" in this assay?
FALSE

Kindly provide the recorded test outcome for the following compound: CCOc1ccc(C(=O)Nc2c3c(nn2-c2ccc(C)cc2)CS(=O)C3)cc1OCC (stereo unspecified)
FALSE

Outcome logged for COc1ccc(C(CNC(=O)C2CC(=O)N(Cc3ccc(C)cc3)C2)N(C)C)cc1 (stereo unspecified) in this assay:
FALSE

How was COCCOC(=O)C1=C(C)NC2=C(C(=O)CC(C)(C)C2)C1c1ccc2c(c1)OCO2 (stereo unspecified) classified in this test?
FALSE

Please share the test call associated with "C=CCn1c(SCC(=O)NCc2ccco2)nc2sc3c(c2c1=O)CCC3" .
FALSE

Dear all, I need the recorded test outcome for "O=C(NC1CCCCC1)C1CCN(S(=O)(=O)c2cccc3cccnc23)CC1" , thank you.
FALSE

Recorded test call requested for "c1ccc(-c2noc(CSc3nnnn3-c3ccccc3)n2)cc1"
FALSE

Name the outcome recorded for "CCCNC(=O)c1noc2c1CCc1ccccc1-2" in the assay.
FALSE

Short answer needed: outcome of this test for O=C(NCC1CCCO1)c1ccc2c(c1)C(=O)N(C1CCCCC1)C2=O (stereo unspecified) ?
FALSE

Can you look up the reported call for "O=C(NCCc1csc(-c2cccnc2)n1)c1ccco1" for me?
FALSE

What outcome does the record of this test show for CC12COC3(C(=O)Nc4cccnc4)CC1CCC32C (stereo unspecified) ?
FALSE

What call does the record list for "Cn1c2ccccc2c2c(C(=O)O)cn(C3CCCC3)c(=O)c21" ?
FALSE

Would you mind telling me which call this test gave "COc1ccc(C)cc1Nc1cc(C)nc2nc(C)nn12" ?
FALSE

Hi team, can someone confirm the assay call for "Cc1nc(N2CCCCC2)c2sc(=S)n(C)c2n1" ?
FALSE

Returns: the outcome recorded for COCCOC(=O)C1=C(C)NC2=C(C(=O)CC(C)(C)C2)C1c1ccc(N(C)C)cc1 (stereo unspecified) in this assay.
FALSE

Short answer needed: outcome of this test for "Cc1nc2ccccc2c2oc(C(=O)NCCCN3CCC(C)CC3)cc12" ?
FALSE

Which outcome was entered for the compound "N#CN=C1SCCS1" in this test?
FALSE

Hi, sorry to bother you, what did the test record for Cc1ccc(C(=O)CC(C(=O)O)c2cn(CCC#N)c3ccccc23)cc1 (stereo unspecified) ?
FALSE

Could you please tell me the result logged for "CC(=NCc1cccnc1)C1=C(O)c2ccccc2C1=O" in this assay?
FALSE

Hi team, can someone confirm the assay call for C=CCOC(=O)C1CC=CCC1C(=O)Oc1ccc(F)cc1F (stereo unspecified) ?
FALSE

Hello, I am checking results. What call was entered for "COc1ccc(NC(=O)N(CCCN2CCOCC2)Cc2cccnc2)c(OC)c1" ?
FALSE

Assay result, entry "O=C(NCCCN1CCCC1=O)c1ccc2c(c1)ncn2C1CCCCC1" — outcome?
FALSE

Could you please tell me the result logged for "O=C(c1ccc(F)cc1)c1cn[nH]c1-c1ccccc1O" in this assay?
FALSE

Please let me know the test result on file for "O=C1c2ccccc2C(=O)N1CCCc1nc2ccccc2c(=O)n1-c1cccnc1" .
FALSE

Would you mind telling me which call this test gave "O=C(O)c1cccc(CN2C(=O)CSC2=O)c1" ?
FALSE

Identify the outcome logged in this assay for the compound shown: "C=CCSc1nnc2nc3c(nn12)c1cc(C)ccc1n3CC=C"
FALSE

I would be grateful if you could indicate the recorded call for Cc1cccc(N2CCN(C(=O)C3CCN(c4nnc(-n5cccc5)s4)CC3)CC2C)c1 (stereo unspecified) .
FALSE

Hello, I am checking results. What call was entered for "Cc1ccc(OCC(=O)Nc2cc(-c3nn4c(C)nnc4s3)ccc2C)cc1" ?
FALSE

Please indicate how the test categorized COc1ccc(Cn2nnc3c(=O)[nH]c(C4CCCN(C(=O)c5ccccc5)C4)nc32)cc1 (stereo unspecified) .
FALSE

Dear colleague, could you share the recorded outcome for "O=C(c1cnn2ccccc12)N(Cc1ccco1)C1CCCC1" when you have a moment?
FALSE

Please indicate how the test categorized "Cc1nn(-c2cccc(C(F)(F)F)c2)c(Cl)c1/C=N/n1cnnc1" .
FALSE

For this compound, state the assay outcome: "COc1ccc(OC)c(S(=O)(=O)Nc2ccc(OCC(=O)O)cc2)c1"
FALSE

For this compound, state the assay outcome: COc1cc(C2NC(=O)NC(C)=C2C(=O)OC2CCCCC2)cc(Br)c1O (stereo unspecified)
FALSE

Identify the outcome logged in this assay for the compound shown: CCOC(=O)C1CCN(C(=O)c2ccc(NC(=O)C3CCCO3)cc2)CC1 (stereo unspecified)
FALSE

Identify the outcome logged in this assay for the compound shown: "COc1cccc(-c2cc(C(F)(F)F)nc(N3CCOCC3)n2)c1"
FALSE

For COc1ccc(-n2nc3c(c2NC(=O)c2ccc(Br)cc2)CS(=O)C3)cc1 (stereo unspecified) , which call appears in the assay record?
FALSE

Please share the test call associated with "Cn1c(C(=O)N2CCCC2)cc2c(=O)n(C)c3ccccc3c21" .
FALSE

Short answer needed: outcome of this test for "COc1cc(CCC(=O)N2CCN(c3ccc(N4CCOCC4)nn3)CC2)cc(OC)c1OC" ?
FALSE

Each compound tested received a call. Report the one for CC1=C(C(=O)OCc2ccc3c(c2)OCO3)C(c2ccc(Cl)cc2)NC(=O)N1 (stereo unspecified) .
TRUE

Per the assay record, what outcome was assigned to "Cc1cc(NC(=O)c2cc(-c3cccs3)nc3ccccc23)no1" ?
FALSE

What did this assay record as the result for "O=C(Nc1ccccc1C(=O)N1CCOCC1)c1ccco1" ?
FALSE

What classification did OC(C#CCN1CCOCC1)c1cccs1 (stereo unspecified) end up with in this test?
FALSE

What was the test verdict on "CCOc1cccc(C(=O)Nc2cc(-c3nn4c(C)nnc4s3)ccc2C)c1" ?
FALSE

Which outcome did this test record for the compound "Cc1cnc(N)c2c(=O)oc3ccccc3c12" ?
FALSE
